Target: ATP-dependent translocase ABCB1 (Homo sapiens)
Experiment: Inhibition of P-glycoprotein in human drug-resistant K562/ADR cells assessed as reduction in P-gp mediated rhodamine 123 efflux by spectrofluorometry
Readout: Ki (nM)

CN(C)CCn1c(=O)/c(=C/c2ccc(O)cc2)s/c1=C1/C(=O)Nc2ccc(F)cc21
1340
CN(C)CCn1c(=O)/c(=C/c2ccc(O)cc2)s/c1=C1\C(=O)Nc2ccc(F)cc21
1340

[1] CCN(CC)CCCn1c(=O)/c(=C/c2ccc3c(c2)OCO3)s/c1=C1/C(=O)Nc2ccccc21
[2] CCN(CC)CCCn1c(=O)/c(=C/c2ccc3c(c2)OCO3)s/c1=C1\C(=O)Nc2ccc(Cl)cc21
Query: Just curious, which one has the larger Ki reading, 1 or 2 ? Response format: the label of the selected entry.
Response: 2

* * *

Target: UniProt:P08183
Test: Inhibition of P-glycoprotein in human drug-resistant K562/ADR cells assessed as reduction in P-gp mediated rhodamine 123 efflux by spectrofluorometry
Readout: Ki (µM)

[A] CCN(CC)CCCn1c(=O)/c(=C/c2cc(OC)c(OC)c(OC)c2)s/c1=C1\C(=O)Nc2cc(F)ccc21
[B] CCN(CC)CCCn1c(=O)/c(=C/c2ccccc2O)s/c1=C1\C(=O)Nc2ccc(C)cc21
[C] CCN(CC)CCCn1c(=O)/c(=C/c2ccc3c(c2)OCO3)s/c1=C1/C(=O)Nc2ccc(C)cc21
Query: Ordering: ascending Ki. Returns: the labels arranged in the requested order.
Response: A, C, B

[a] CCN(CC)CCCn1c(=O)/c(=C/c2ccc3c(c2)OCO3)s/c1=C1/C(=O)Nc2ccc(Cl)cc21
[b] CCN(CC)CCCn1c(=O)/c(=C/c2cc(OC)c(OC)c(OC)c2)s/c1=C1/C(=O)Nc2ccc(C)cc21
[c] CCN(CC)CCCn1c(=O)/c(=C/c2cc(OC)c(OC)c(OC)c2)s/c1=C1/C(=O)Nc2ccc(F)cc21
Query: Would you mind ranking these compounds by ascending Ki? Labels, requested order.
Response: c, b, a

[A] CCN(CC)CCCn1c(=O)/c(=C/c2cc(OC)c(OC)c(OC)c2)s/c1=C1\C(=O)Nc2ccccc21
[B] CCN(CC)CCCn1c(=O)/c(=C/c2cc(OC)c(OC)c(OC)c2)s/c1=C1/C(=O)Nc2ccc(Cl)cc21
Query: Kindly identify which of A and B has the larger recorded Ki value. Your answer should be the label attached to the chosen record.
Response: A
(A: 0.73 µM, B: 0.22 µM)

* * *

Reported values of IC50 for individual entries
Assay: Cytotoxicity against human drug-resistant K562/ADR cells expressing high levels of P-glycoprotein assessed as reduction in cell viability incubated for 48 hrs by SRB assay
Type: functional, cell-based
State the answer as a number, implicitly in µM.

Below, 2 molecules whose answers are already recorded.
CCN(CC)CCCn1c(=O)/c(=C/c2cc(OC)c(OC)c(OC)c2)s/c1=C1/C(=O)Nc2ccc(F)cc21
2.86
CN(C)CCn1c(=O)/c(=C/c2ccc(O)cc2)s/c1=C1/C(=O)Nc2ccccc21
6.16

Query: Can you look up the measured IC50 of `CCN(CC)CCCn1c(=O)/c(=C/c2ccc3c(c2)OCO3)s/c1=C1\C(=O)Nc2ccc(C)cc21` for me?
Response: 5.03

Query: Name the reported IC50 value associated with the molecule `CCN(CC)CCCn1c(=O)/c(=C/c2ccc(F)c(F)c2)s/c1=C1\C(=O)Nc2ccc(F)cc21`
Response: 6.48

Query: Requested read-out: IC50. Entry: `CCN(CC)CCCn1c(=O)/c(=C/c2ccc3c(c2)OCO3)s/c1=C1\C(=O)Nc2ccc(Cl)cc21`
Response: 5.05

Query: Look up IC50: `CCN(CC)CCCn1c(=O)/c(=C/c2ccc(O)cc2)s/c1=C1\C(=O)Nc2ccc(Cl)cc21`
Response: 48.8

Query: Fill in: IC50 of `CCN(CC)CCCn1c(=O)/c(=C/c2cc(OC)c(OC)c(OC)c2)s/c1=C1/C(=O)Nc2cc(F)ccc21` is ___
Response: 1.64

Query: Which IC50 value is on record for `CCN(CC)CCCn1c(=O)/c(=C/c2ccc3c(c2)OCO3)s/c1=C1\C(=O)Nc2cc(F)ccc21` ?
Response: 2.98

* * *

Assay: Cytotoxicity against human drug-resistant K562/ADR cells expressing high levels of P-glycoprotein assessed as reduction in cell viability incubated for 48 hrs by SRB assay
Type: functional, cell-based
Readout: IC50 (µM)
Just the number please, in µM, no unit attached.

CCN(CC)CCCn1c(=O)/c(=C/c2ccc3c(c2)OCO3)s/c1=C1/C(=O)Nc2ccccc21
7.95
CN(C)CCn1c(=O)/c(=C/c2ccc3c(c2)OCO3)s/c1=C1\C(=O)Nc2ccccc21
0.78
CCN(CC)CCCn1c(=O)/c(=C/c2cc(OC)c(OC)c(OC)c2)s/c1=C1\C(=O)Nc2ccc(F)cc21
2.86
Cc1ccc2c(c1)/C(=c1/s/c(=C\c3ccc(O)cc3)c(=O)n1CCN(C)C)C(=O)N2
6.8
CCN(CC)CCCn1c(=O)/c(=C/c2ccc3c(c2)OCO3)s/c1=C1/C(=O)Nc2ccc(C)cc21
5.03

Query: So what's the measured IC50 for this one? `CN(C)CCn1c(=O)/c(=C/c2ccc(O)cc2)s/c1=C1/C(=O)Nc2ccc(F)cc21`
Response: 6.14

Query: Could you share which IC50 value was measured for `CCN(CC)CCCn1c(=O)/c(=C/c2cc(OC)c(OC)c(OC)c2)s/c1=C1/C(=O)Nc2ccc(Cl)cc21` ?
Response: 1.65

Query: Entry `CCN(CC)CCCn1c(=O)/c(=C/c2cc(OC)c(OC)c(OC)c2)s/c1=C1/C(=O)Nc2ccc(C)cc21` has what IC50?
Response: 2.02

Query: # input molecule: `CN(C)CCn1c(=O)/c(=C/c2ccc3c(c2)OCO3)s/c1=C1/C(=O)Nc2ccccc21` ; wanted: its IC50
Response: 0.78

Query: Fill in the blank: the reported IC50 of `CN(C)CCn1c(=O)/c(=C/c2ccc(O)cc2)s/c1=C1\C(=O)Nc2ccccc21` is ____.
Response: 6.16

Query: Would you kindly share the measured IC50 for `CCN(CC)CCCn1c(=O)/c(=C/c2ccc3c(c2)OCO3)s/c1=C1/C(=O)Nc2ccc(F)cc21` ?
Response: 12.5

Query: Look up IC50 for this molecule: `CN(C)CCn1c(=O)/c(=C/c2ccc(O)cc2)s/c1=C1/C(=O)Nc2cc(F)ccc21`
Response: 7.16

Query: Reported IC50 for `CCN(CC)CCCn1c(=O)/c(=C/c2ccc(F)cc2F)s/c1=C1\C(=O)Nc2cc(F)ccc21` : what is it?
Response: 4.12

Query: Using the record for `CCN(CC)CCCn1c(=O)/c(=C/c2cc(OC)c(OC)c(OC)c2)s/c1=C1\C(=O)Nc2ccc(Cl)cc21` , report its IC50.
Response: 1.65

Query: Give the measured IC50 of `CN(C)CCn1c(=O)/c(=C/c2ccc(O)cc2)s/c1=C1\C(=O)Nc2cc(F)ccc21` .
Response: 7.16

* * *

Experiment: Cytotoxicity against human drug-resistant K562/ADR cells expressing high levels of P-glycoprotein assessed as reduction in cell viability incubated for 48 hrs by SRB assay
Type: functional, cell-based
Readout: pIC50
Keep in mind that pIC50 stands for -log10 of concentration in molar terms.

Examples with their reported pIC50 follow.
CCN(CC)CCCn1c(=O)/c(=C/c2ccc(F)cc2F)s/c1=C1/C(=O)Nc2cc(F)ccc21
5.39
CCN(CC)CCCn1c(=O)/c(=C/c2ccc3c(c2)OCO3)s/c1=C1\C(=O)Nc2ccccc21
5.10

Let us examine a further case.
Query: # pIC50 lookup, item `CCN(CC)CCCn1c(=O)/c(=C/c2ccccc2O)s/c1=C1/C(=O)Nc2ccc(C)cc21`
Response: 4.51

* * *

Molecular target: ATP-dependent translocase ABCB1 (Homo sapiens, UniProt P08183)
Sequence (P08183 whole entry): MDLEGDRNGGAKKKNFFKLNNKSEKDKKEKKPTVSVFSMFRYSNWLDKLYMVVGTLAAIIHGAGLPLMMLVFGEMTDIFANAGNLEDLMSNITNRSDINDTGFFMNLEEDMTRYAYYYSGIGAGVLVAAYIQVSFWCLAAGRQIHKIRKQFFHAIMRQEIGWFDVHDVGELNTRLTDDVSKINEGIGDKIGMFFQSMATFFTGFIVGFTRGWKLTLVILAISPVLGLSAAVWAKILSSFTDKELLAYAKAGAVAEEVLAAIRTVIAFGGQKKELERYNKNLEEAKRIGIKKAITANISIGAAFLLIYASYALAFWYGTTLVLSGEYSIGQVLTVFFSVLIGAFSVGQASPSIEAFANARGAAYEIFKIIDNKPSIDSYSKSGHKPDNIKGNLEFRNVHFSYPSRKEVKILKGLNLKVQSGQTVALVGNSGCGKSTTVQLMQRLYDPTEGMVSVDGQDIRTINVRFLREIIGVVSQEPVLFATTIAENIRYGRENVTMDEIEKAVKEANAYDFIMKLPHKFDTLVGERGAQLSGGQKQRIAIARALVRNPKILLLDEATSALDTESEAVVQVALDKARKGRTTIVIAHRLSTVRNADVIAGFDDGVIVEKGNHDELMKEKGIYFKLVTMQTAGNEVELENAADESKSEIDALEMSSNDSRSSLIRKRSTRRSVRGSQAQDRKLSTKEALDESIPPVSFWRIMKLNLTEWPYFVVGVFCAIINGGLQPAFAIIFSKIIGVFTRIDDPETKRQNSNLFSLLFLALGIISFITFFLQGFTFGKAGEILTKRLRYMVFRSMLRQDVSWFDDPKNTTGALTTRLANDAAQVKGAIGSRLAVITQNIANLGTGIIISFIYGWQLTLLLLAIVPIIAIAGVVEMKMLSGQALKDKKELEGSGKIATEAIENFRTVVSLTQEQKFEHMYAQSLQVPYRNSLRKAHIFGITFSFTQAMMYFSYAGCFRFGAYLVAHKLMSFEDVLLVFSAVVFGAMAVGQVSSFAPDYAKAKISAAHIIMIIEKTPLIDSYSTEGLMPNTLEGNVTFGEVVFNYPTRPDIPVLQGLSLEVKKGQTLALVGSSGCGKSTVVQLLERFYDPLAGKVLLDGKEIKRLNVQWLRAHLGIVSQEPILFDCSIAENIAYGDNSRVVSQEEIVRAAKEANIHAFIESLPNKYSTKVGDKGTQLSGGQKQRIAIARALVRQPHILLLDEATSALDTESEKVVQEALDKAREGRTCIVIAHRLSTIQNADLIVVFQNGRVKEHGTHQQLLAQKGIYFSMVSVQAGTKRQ
Assay: Inhibition of P-glycoprotein in human drug-resistant K562/ADR cells assessed as reduction in P-gp mediated rhodamine 123 efflux by spectrofluorometry
Readout: Ki (nM)

Here are 2 compounds together with their reported answers.
CCN(CC)CCCn1c(=O)/c(=C/c2ccccc2O)s/c1=C1/C(=O)Nc2ccc(C)cc21
1710
CCN(CC)CCCn1c(=O)/c(=C/c2ccc3c(c2)OCO3)s/c1=C1\C(=O)Nc2ccc(C)cc21
940

[I] CCN(CC)CCCn1c(=O)/c(=C/c2cc(OC)c(OC)c(OC)c2)s/c1=C1/C(=O)Nc2cc(F)ccc21
[II] CCN(CC)CCCn1c(=O)/c(=C/c2cc(OC)c(OC)c(OC)c2)s/c1=C1\C(=O)Nc2ccc(F)cc21
Query: Out of I and II , name the one with the higher Ki. In your reply, give the label of the chosen option.
Response: I
